biological target: Human KLK1 (Homo sapiens (Human), UniProt P06870); assay: Determination of the IC50 for KLK1; assay type: biochemical; conditions: Human KLK1, 37° C., substrate H-DVal-Leu-Arg-AFC; Table 13
Sequence (P06870 25-262): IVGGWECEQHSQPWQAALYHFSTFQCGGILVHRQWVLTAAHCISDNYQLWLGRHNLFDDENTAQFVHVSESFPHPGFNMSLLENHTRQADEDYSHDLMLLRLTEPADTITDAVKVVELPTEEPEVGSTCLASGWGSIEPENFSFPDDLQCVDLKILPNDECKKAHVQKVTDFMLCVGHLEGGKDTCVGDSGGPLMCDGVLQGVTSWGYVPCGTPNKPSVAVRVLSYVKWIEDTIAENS
pIC50: −log10 of the molar value.
readout type: pIC50

Previously resolved entries follow.
CCOc1ccc(C[C@@H](NC(=O)C2CCCCC2)C(=O)N[C@@H](Cc2ccccc2)C(=O)NCc2ccc(CN)cc2)cc1 :: < 5.00
CCOc1ccc(C[C@@H](NC(=O)CCc2ccccc2)C(=O)N[C@@H](Cc2ccccc2)C(=O)NCc2ccc(CN)cc2)cc1 :: < 5.00
NCc1ccc(CNC(=O)[C@H](Cc2ccccc2)NC(=O)[C@@H](Cc2ccc(OCc3ccc(Cl)cc3)cc2)NC(=O)c2ccccc2)cc1 :: < 5.00

Problem: Given the entry `CCCCCCNC(=O)N[C@H](Cc1ccc(OCC)cc1)C(=O)N[C@@H](Cc1ccccc1)C(=O)NCc1ccc(CN)cc1` , report its measured pIC50.
Solution: < 5.00

Problem: Given the entry `CCOc1ccc(C[C@@H](NC(=O)c2ccccc2)C(=O)N[C@@H](Cc2ccccc2F)C(=O)NCc2ccc(CN)cc2)cc1` , report its measured pIC50.
Solution: < 5.00

Problem: Given the entry `CCOc1ccc(C[C@@H](NC(=O)c2cccs2)C(=O)N[C@@H](Cc2cccnc2)C(=O)NCc2ccc(CN)cc2)cc1` , report its measured pIC50.
Solution: < 5.00

Problem: Given the entry `Cc1ccc(C[C@@H](NC(=O)c2ccccc2)C(=O)N[C@@H](Cc2ccccc2)C(=O)NCc2ccc(CN)cc2)cc1` , report its measured pIC50.
Solution: < 5.00

Problem: Given the entry `NCc1ccc(CNC(=O)[C@H](Cc2ccccc2)NC(=O)[C@@H](Cc2ccc(OCc3c(Cl)cccc3Cl)cc2)NC(=O)c2ccccc2)cc1` , report its measured pIC50.
Solution: < 5.00

Problem: Given the entry `CCOc1ccc(C[C@@H](NC(=O)c2sccc2Cl)C(=O)N[C@@H](Cc2cscn2)C(=O)NCc2ccc(CN)cc2)cc1` , report its measured pIC50.
Solution: < 5.00

Problem: Given the entry `CCOc1ccc(C[C@@H](NC(=O)Nc2ccc(Cl)cc2)C(=O)N[C@@H](Cc2ccccc2)C(=O)NCc2ccc(CN)cc2)cc1` , report its measured pIC50.
Solution: 5.05

Problem: Given the entry `CCOc1ccc(C[C@@H](NC(=O)c2ccccc2)C(=O)N[C@@H](Cc2ccc(F)cc2)C(=O)NCc2ccc(CN)cc2)cc1` , report its measured pIC50.
Solution: < 5.00

Problem: Given the entry `COc1ccc(C[C@@H](NC(=O)c2ccccc2)C(=O)N[C@@H](Cc2ccccc2)C(=O)NCc2ccc(CN)cc2)cn1` , report its measured pIC50.
Solution: < 5.00

Problem: Given the entry `CCOc1ccc(C[C@@H](NC(=O)c2scnc2C)C(=O)N[C@@H](Cc2ccccc2)C(=O)NCc2ccc(CN)cc2)cc1` , report its measured pIC50.
Solution: 5.21

---

molecular target: Human KLK1 (Homo sapiens (Human)); assay: Determination of the IC50 for KLK1; format: biochemical; settings: Human KLK1, 37° C., substrate H-DVal-Leu-Arg-AFC; Table 12
pIC50: −log10 of the molar value.
Recorded pIC50 by entry

Problem: Given the entry `CCOc1ccc(C[C@@H](NC(C)=O)C(=O)N(C)[C@@H](Cc2ccccc2)C(=O)NCc2ccc(CN)cc2)cc1` , report its measured pIC50.
Solution: < 5.00

Problem: Given the entry COC(=O)CN[C@H](CC1CCCCC1)C(=O)N[C@@H](Cc1ccccc1)C(=O)NCc1ccc(CN)cc1 [Example 46] , report its measured pIC50.
Solution: < 5.00

Problem: Given the entry `CCOc1ccc(C[C@@H](NC(=O)CC)C(=O)N[C@@H](Cc2ccccc2)C(=O)NCc2ccc(CN)c(Cl)c2)cc1` , report its measured pIC50.
Solution: 5.25

Problem: Given the entry COC(=O)CN[C@H](CC1CCCCC1)C(=O)N[C@@H](Cc1ccccc1)C(=O)NCc1ccc(CN)cc1 [Example 47] , report its measured pIC50.
Solution: < 5.00
